Examples of binders with documented EC50, cAMP follow.
systemName: human GLP-1 receptor (human, UniProt P43220 24-463)
experiment: cell-based or functional assay
observationType: EC50, cAMP (nM)

[[record]]
binder = "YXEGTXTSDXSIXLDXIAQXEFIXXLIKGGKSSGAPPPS (Aib2, αMeF(2F)6, 4Pal10, αMeL13, Orn16, Aib20, D-Glu24, αMeY25, K28 and K31: K(AEEA2-(γ-Glu)-CO-(CH2)14-CH3), C-terminal NH2) [Example 26]"
uom = "nM"
reportedvalue = 0.0711

[[record]]
binder = "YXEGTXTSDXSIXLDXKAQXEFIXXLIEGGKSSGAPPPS (Aib2, αMeF(2F)6, 4Pal10, αMeL13, Orn16, Aib20, D-Glu24, αMeY25, K17 and K31: K(AEEA2-(γ-Glu)-CO-(CH2)10-CO2H), C-terminal NH2) [Example 6]"
uom = "nM"
reportedvalue = 2.3

[[record]]
binder = "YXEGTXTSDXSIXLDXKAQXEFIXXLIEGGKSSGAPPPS (Aib2, αMeF(2F)6, 4Pal10, αMeL13, Orn16, Aib20, D-Glu24, αMeY25, K17 and K31: K(AEEA-(γ-Glu)-CO-(CH2)12-CO2H), C-terminal NH2) [Example 11]"
uom = "nM"
reportedvalue = 0.511

[[record]]
binder = "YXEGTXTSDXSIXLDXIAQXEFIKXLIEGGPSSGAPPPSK (Aib2, αMeF(2F)6, 4Pal10, αMeL13, Orn16, Aib20, αMeY25, K24 and K40: K(AEEA2-(γ-Glu)-CO-(CH2)12-CO2H), C-terminal NH2) [Example 72]"
uom = "nM"
reportedvalue = 0.245

